Experiment: xn = mol fraction of the nth substance listed
Settings: 353.25 K; 594 kPa; Liquid; absorption in thin film; x2 = 0
Consider the following compounds and their measured binary diffusion coefficient readings.
endpoint_name: binary diffusion coefficient

1. CCn1cc[n+](C)c1.N#C[C-](C#N)C#N [1-ethyl-3-methyl-1H-imidazolium tricyanomethanide] + O=C=O; 6.6e-10 m2/s
2. CCCCCCCCn1cc[n+](C)c1.N#CC(=C=[N-])C#N [1-methyl-3-octylimidazolium tricyanomethanide] + O=C=O; 5.5e-10 m2/s
3. CCCCCCCn1cc[n+](C)c1.N#C[C-](C#N)C#N [1-heptyl-3-methylimidazolium tricyanomethanide] + O=C=O; 6.5e-10 m2/s
4. CCCCCC[n+]1ccn(C)c1.N#C[C-](C#N)C#N [3-hexyl-1-methylimidazolium tricyanomethanide] + O=C=O; 6.4e-10 m2/s

---

Experiment: xn = mol fraction of the nth substance listed
Settings: 308.15 K; 1093 kPa; Liquid; absorption in thin film; x2 = 0
endpoint_name: binary diffusion coefficient (m2/s)

1) CCCCCC[n+]1ccn(C)c1.N#C[C-](C#N)C#N [3-hexyl-1-methylimidazolium tricyanomethanide] + O=C=O; 3.1e-10
2) CCCCCCCCn1cc[n+](C)c1.N#CC(=C=[N-])C#N [1-methyl-3-octylimidazolium tricyanomethanide] + O=C=O; 2.7e-10
3) CCCCCCCn1cc[n+](C)c1.N#C[C-](C#N)C#N [1-heptyl-3-methylimidazolium tricyanomethanide] + O=C=O; 3.2e-10
4) CCn1cc[n+](C)c1.N#C[C-](C#N)C#N [1-ethyl-3-methyl-1H-imidazolium tricyanomethanide] + O=C=O; 3.6e-10

---

Consider the following compounds and their measured binary diffusion coefficient readings.
Test: xn = mol fraction of the nth substance listed
Settings: 298.15 K; 393 kPa; Liquid; absorption in thin film; x2 = 0
endpoint_name: binary diffusion coefficient (m2/s)

1) CCCCCCCCn1cc[n+](C)c1.N#CC(=C=[N-])C#N [1-methyl-3-octylimidazolium tricyanomethanide] + O=C=O; 2e-10
2) CCCCCC[n+]1ccn(C)c1.N#C[C-](C#N)C#N [3-hexyl-1-methylimidazolium tricyanomethanide] + O=C=O; 2e-10
3) CCCCCCCn1cc[n+](C)c1.N#C[C-](C#N)C#N [1-heptyl-3-methylimidazolium tricyanomethanide] + O=C=O; 1.9e-10
4) CCn1cc[n+](C)c1.N#C[C-](C#N)C#N [1-ethyl-3-methyl-1H-imidazolium tricyanomethanide] + O=C=O; 2.6e-10

---

Consider the following compounds and their measured binary diffusion coefficient readings.
Assay: xn = mol fraction of the nth substance listed
Details: 323.15 K; 1093 kPa; Liquid; absorption in thin film; x2 = 0
endpoint_name: binary diffusion coefficient

1. CCCCCCCn1cc[n+](C)c1.N#C[C-](C#N)C#N [1-heptyl-3-methylimidazolium tricyanomethanide] + O=C=O; 4.2e-10 m2/s
2. CCCCCCCCn1cc[n+](C)c1.N#CC(=C=[N-])C#N [1-methyl-3-octylimidazolium tricyanomethanide] + O=C=O; 3.8e-10 m2/s
3. CCCCCC[n+]1ccn(C)c1.N#C[C-](C#N)C#N [3-hexyl-1-methylimidazolium tricyanomethanide] + O=C=O; 3.8e-10 m2/s
4. CCn1cc[n+](C)c1.N#C[C-](C#N)C#N [1-ethyl-3-methyl-1H-imidazolium tricyanomethanide] + O=C=O; 4.2e-10 m2/s

---

Consider the following compounds and their measured binary diffusion coefficient readings.
Experiment: xn = mol fraction of the nth substance listed
Conditions: 338.25 K; 1993 kPa; Liquid; absorption in thin film; x2 = 0
endpoint_name: binary diffusion coefficient (m2/s)

1. CCCCCC[n+]1ccn(C)c1.N#C[C-](C#N)C#N [3-hexyl-1-methylimidazolium tricyanomethanide] + O=C=O; 6.3e-10
2. CCCCCCCn1cc[n+](C)c1.N#C[C-](C#N)C#N [1-heptyl-3-methylimidazolium tricyanomethanide] + O=C=O; 6.5e-10
3. CCn1cc[n+](C)c1.N#C[C-](C#N)C#N [1-ethyl-3-methyl-1H-imidazolium tricyanomethanide] + O=C=O; 5.4e-10
4. CCCCCCCCn1cc[n+](C)c1.N#CC(=C=[N-])C#N [1-methyl-3-octylimidazolium tricyanomethanide] + O=C=O; 5.2e-10

---

Consider the following compounds and their measured binary diffusion coefficient readings.
Experiment: xn = mol fraction of the nth substance listed
Settings: 323.15 K; 793 kPa; Liquid; absorption in thin film; x2 = 0
endpoint_name: binary diffusion coefficient (m2/s)

1. CCn1cc[n+](C)c1.N#C[C-](C#N)C#N [1-ethyl-3-methyl-1H-imidazolium tricyanomethanide] + O=C=O; 4.4e-10
2. CCCCCCCn1cc[n+](C)c1.N#C[C-](C#N)C#N [1-heptyl-3-methylimidazolium tricyanomethanide] + O=C=O; 4e-10
3. CCCCCCCCn1cc[n+](C)c1.N#CC(=C=[N-])C#N [1-methyl-3-octylimidazolium tricyanomethanide] + O=C=O; 4e-10
4. CCCCCC[n+]1ccn(C)c1.N#C[C-](C#N)C#N [3-hexyl-1-methylimidazolium tricyanomethanide] + O=C=O; 3.7e-10

---

Consider the following compounds and their measured binary diffusion coefficient readings.
Assay: xn = mol fraction of the nth substance listed
Conditions: 308.15 K; 593 kPa; Liquid; absorption in thin film; x2 = 0
endpoint_name: binary diffusion coefficient (m2/s)

1) CCCCCCCn1cc[n+](C)c1.N#C[C-](C#N)C#N [1-heptyl-3-methylimidazolium tricyanomethanide] + O=C=O; 2.9e-10
2) CCCCCC[n+]1ccn(C)c1.N#C[C-](C#N)C#N [3-hexyl-1-methylimidazolium tricyanomethanide] + O=C=O; 2.5e-10
3) CCn1cc[n+](C)c1.N#C[C-](C#N)C#N [1-ethyl-3-methyl-1H-imidazolium tricyanomethanide] + O=C=O; 3.1e-10
4) CCCCCCCCn1cc[n+](C)c1.N#CC(=C=[N-])C#N [1-methyl-3-octylimidazolium tricyanomethanide] + O=C=O; 2.5e-10
